Parameter: IC50. Scope: all listed entries.
Test system: HeLa
Test: Cytotoxicity against human BRCA1 deficient HeLa cells after 7 days by fluorimetric analysis
Assay type: functional, cell-based
Details: 168 h

compound	IC50
NC(=O)c1cccc2cn(-c3cccc(C(=O)N4CCCNCC4)c3)nc12	> 20000 nM
NC(=O)c1cccc2cn(-c3ccc(C(=O)N4CCCNCC4)cc3)nc12	> 10000 nM
NC(=O)c1cccc2cn(-c3ccc(CNC(=O)C4CNC4)cc3)nc12	> 20000 nM
CNCc1ccc(-n2cc3c(O)ccc(C(N)=O)c3n2)cc1	> 20000 nM

Proceed to the following item.
What does the record list as IC50 for CN(Cc1ccc(-n2cc3cccc(C(N)=O)c3n2)cc1)C(=O)C1CNC1 ?
> 20000 nM

====

Tested on: HeLa
Assay: Cytotoxicity against human BRCA1 deficient HeLa cells after 7 days by fluorimetric analysis
Format: functional, cell-based
Conditions: 168 h
assay endpoint: IC50
Note to self: number, then unit, no commentary.

compound	test target	IC50
CN1CC(C(=O)Nc2ccc(-n3cc4cc(F)cc(C(N)=O)c4n3)cc2)C1	HeLa	720 nM
CNCc1ccc(-n2cc3c(F)ccc(C(N)=O)c3n2)cc1	HeLa	2500 nM
CN1CCCC(C(=O)NCc2ccc(-n3cc4cccc(C(N)=O)c4n3)cc2)C1 (stereo unspecified)	HeLa	2300 nM
NC(=O)c1cccc2cn(-c3ccc(C(=O)NCc4ccncc4)cc3)nc12	HeLa	3900 nM
NC(=O)c1cc(F)cc2cn(-c3ccc(NC(=O)C4CNC4)cc3)nc12	HeLa	310 nM

Proceed to the following item.
Give IC50 (HeLa) of the following compound: CN1CC(C(=O)Nc2ccc(-n3cc4cc(F)cc(C(N)=O)c4n3)cc2F)C1
480 nM
